Test system: Cladosporium cladosporioides
methodDescription: Antifungal activity against Cladosporium cladosporioides after 72 hrs
Type: functional
Reported MIC values follow for various compounds
# unit: µg | format: bare number

CC(C)CNC(=O)/C=C\C=C/c1ccc2c(c1)OCO2 [ISOPIPERLONGUMININE]: 0.25
CC(=O)OC(C)(C)CNC(=O)/C=C/C=C/c1ccc2c(c1)OCO2 [CORCOVADINE]: 1
COc1c(OC)c(OC)c2c3c(cc4ccccc42)NC(=O)c13 [PIPEROLACTAM C]: 5

QUERY: Can you look up the measured MIC of COc1ccc(C/C=C/C=C/C(=O)NCC(C)C)cc1 [PIPEROVATINE] for me?
RESULT: 1

QUERY: Can you look up the measured MIC of Clc1ccc(COC(Cn2ccnc2)c2ccc(Cl)cc2Cl)c(Cl)c1 (stereo not drawn) [MICONAZOLE] for me?
RESULT: 1

QUERY: Can you look up the measured MIC of CC(C)CNC(=O)/C=C/C=C/c1ccc2c(c1)OCO2 [PIPERLONGUMININE] for me?
RESULT: 1

QUERY: Can you look up the measured MIC of CC(C)CNC(=O)/C=C/C=C\c1ccc2c(c1)OCO2 [SCUTIFOLAMIDE A] for me?
RESULT: 5

QUERY: Can you look up the measured MIC of CC(=O)OC(C)(C)CNC(=O)/C=C\C=C/c1ccc2c(c1)OCO2 [ISOCORCOVADINE] for me?
RESULT: 2.5
